This collection of values is drawn from the OPERA property sets (Mansouri et al. 2018).

- conditionContext: 25 °C
Binned solubility; ranges: group A: < 0.2 mM; group B: ≥ 0.2 mM and < 9 mM; group C: ≥ 9 mM

See these solved cases before continuing.
# compound, category
records = [
    ("Cc1ccccc1N1C(=O)c2cc(S(N)(=O)=O)c(Cl)cc2NC1C (stereo not given)", "group A"),
    ("CC1=CCCCC1", "group B"),
    ("O=C(O)c1ccc([N+](=O)[O-])cc1[N+](=O)[O-]", "group C"),
]

Shifting focus to the compound that follows.
Class (by measured solubility) for Cc1ccccc1S(N)(=O)=O
group C

====

- conditionContext: 25 °C
Decide by solubility: equal to or exceeding 2000 µM means True, less means False.

# compound, category
records = [
    ("CC(C)CCBr", "False"),
]

Is it the case that CCC1(C2=C[C@H]3CC[C@@H](C2)C3)C(=O)NC(=O)NC1=O has solubility reaching or exceeding 2000 µM?
False

Is it the case that CCC(O)C(C)(C)C (stereo unspecified) has solubility reaching or exceeding 2000 µM?
True

Is it the case that CCCCP(=O)(CCCC)CCCC has solubility reaching or exceeding 2000 µM?
True

Is it the case that O=C(O)c1ccsc1 has solubility reaching or exceeding 2000 µM?
True

Is it the case that Oc1c2ccccc2cc2ccccc12 has solubility reaching or exceeding 2000 µM?
False

Is it the case that C=C(C)c1ccccc1 has solubility reaching or exceeding 2000 µM?
False

Is it the case that C=CCC(C)C has solubility reaching or exceeding 2000 µM?
False
